Test system: Plasmodium falciparum NF54 stage IV/V gametocytes
PROTOCOL NOTES: % inhibition of gametocyte viability (ATP bioluminescence); higher = more inhibition
SETTINGS: 1 µM; 24 h
Please respond with TRUE when measured % inhibition of gametocyte viability is strictly beneath 6%, and with FALSE in all other cases.

                                    molecule  class_name
 0  CCOC(=O)N[C@@H]1CC[C@@H]2[C@@H](C1)C[C@H]1C(=O)O[C@H](C)[C@H]1[C@H]2/C=C/c1ccc(-c2cccc(F)c2)cn1       FALSE
 1  O=C(Nc1cccc(C2=NCCN2)c1)c1ccc(-c2ccc(C(=O)Nc3cccc(C4=NCCN4)c3)cc2)cc1       FALSE
 2      C[C@H](Cn1cnc2c(N)ncnc21)OCP(=O)(O)O        TRUE
 3  CC(C)C(=O)N[C@H]1[C@H]([C@H](O)[C@H](O)CO)OC(C(=O)O)=C[C@@H]1N=[N+]=[N-]        TRUE
 4     CCc1cc(CCC(=O)Nc2ccccc2O)c(=O)[nH]c1C        TRUE
 5       C=C(C)n1c(=O)n(Cc2ccccc2C)c2ccccc21        TRUE
 6  COc1cc(NCc2ccc3nc(N)nc(N)c3c2C)cc(OC)c1OC        TRUE
 7             Nc1nc(N)c2c(Sc3ccccc3)cccc2n1        TRUE
 8  COc1cc(C(C(=O)NC2CCCCC2)N(C(=O)Cc2c[nH]c3ccccc23)c2ccc(C(C)C)cc2)cc(OC)c1OC (centres undefined)        TRUE
 9  C[C@H](NC(=O)C(=O)Nc1ccccc1C(C)(C)C)C(=O)N[C@@H](CC(=O)O)C(=O)COc1c(F)c(F)cc(F)c1F        TRUE
10          O=[N+]([O-])/C(Br)=C/c1ccc(Br)o1       FALSE
11  Clc1cc(Cl)c2c(c1)CCc1ccccc1C2n1ccnc1 (centres undefined)       FALSE
12  CCC[C@@H]1C[C@@H](C(=O)N[C@@H]([C@H]2O[C@H](SC)[C@H](O)[C@@H](O)[C@H]2O)[C@H](C)Cl)N(C)C1        TRUE
13  OCCC#Cc1nc(-c2ccc(F)cc2)c(-c2ccncc2)n1CCCc1ccccc1        TRUE
14              Oc1ccc2[nH]c(-c3ccccc3)nc2c1        TRUE
15  CCCCSc1nc(N)c2[nH]c(=O)c(=O)n(Cc3ccccc3)c2n1        TRUE
16  CC(=O)Nc1cc(NS(=O)(=O)c2ccc(Cl)cc2)cc2c(Cl)n[nH]c12       FALSE
17   CN(C)CC(=O)Nc1ccc2[nH]c(=O)c3ccccc3c2c1       FALSE
18  NC(=O)c1ccccc1NC(=O)c1ccc(C(=O)Nc2ccccc2C(N)=O)cc1        TRUE
